- ASSAY NOTES: Solubility experiment in 0.1M HCl, buffers and water
- Type: physicochemical
- DETAILS: pH 4.5 buffer, pH 4.5, aqueous buffer, thermodynamic from solid, pH 4.5 buffer, ambient temperature; read-out: Solubility (mg/mL) pH 4.5

RECORD SMILES: CS(=O)(=O)C1(c2cc(-c3cnc(N)cc3Cl)nc(N3CCOCC3)n2)CC1
UNIT NAME: mg/mL
solubility at 30 min: 0.025

* * *

- ASSAY NOTES: Hygroscopicity experiment (DVS)
- Type: physicochemical
- DETAILS: humidity increased to 80% RH at 25° C.
- Text: The Dynamic Vapor Sorption (DVS) curve was acquired on the DVS Intrinsic of Surface Measurement Systems. The DVS test results of the crystal form A and the crystal form B-1 were shown in FIG. 26 and FIG. 27, respectively. The DVS test results of the crystal form C, crystal form D-2, crystal form E, and crystal form F were shown in FIG. 28, FIG. 29, FIG. 30, and FIG. 31.
// reported moisture absorbed per item
READOUT: moisture absorbed (%)

MOLECULE: CS(=O)(=O)C1(c2cc(-c3cnc(N)cc3Cl)nc(N3CCOCC3)n2)CC1 [crystal form E]
RESULT: 0.12
//
MOLECULE: CS(=O)(=O)C1(c2cc(-c3cnc(N)cc3Cl)nc(N3CCOCC3)n2)CC1 [crystal form F]
RESULT: 0.26
//
MOLECULE: CS(=O)(=O)C1(c2cc(-c3cnc(N)cc3Cl)nc(N3CCOCC3)n2)CC1 [crystal form C]
RESULT: 0.17
//
MOLECULE: CS(=O)(=O)C1(c2cc(-c3cnc(N)cc3Cl)nc(N3CCOCC3)n2)CC1 [crystal form D-2]
RESULT: 0.14

* * *

- ASSAY NOTES: Solubility of crystal form I in common solvents
- Assay type: physicochemical
- DETAILS: aqueous with cosolvent or surfactant or cyclodextrin, thermodynamic from solid; 50% acetonitrile, ambient temperature

MOLECULE: CS(=O)(=O)C1(c2cc(-c3cnc(N)cc3Cl)nc(N3CCOCC3)n2)CC1 [crystal form I]
solubility (mg/mL): 11

* * *

- ASSAY NOTES: Solubility experiment in 0.1M HCl, buffers and water
- Format: physicochemical
- DETAILS: 0.1M HCl, ambient temperature
Listed next: entries and their corresponding Solubility (mg/mL) 0.1M HCl.

COMPOUND: CS(=O)(=O)C1(c2cc(-c3cnc(N)cc3Cl)nc(N3CCOCC3)n2)CC1 [crystal form D-2]
RELATION QUALIFIER: =
Solubility (mg/mL) 0.1M HCl: 1.195
//
COMPOUND: CS(=O)(=O)C1(c2cc(-c3cnc(N)cc3Cl)nc(N3CCOCC3)n2)CC1 [crystal form A]
RELATION QUALIFIER: >
Solubility (mg/mL) 0.1M HCl: 2.744
//
COMPOUND: CS(=O)(=O)C1(c2cc(-c3cnc(N)cc3Cl)nc(N3CCOCC3)n2)CC1 [crystal form B-1]
RELATION QUALIFIER: >
Solubility (mg/mL) 0.1M HCl: 2.488
//
COMPOUND: CS(=O)(=O)C1(c2cc(-c3cnc(N)cc3Cl)nc(N3CCOCC3)n2)CC1 [crystal form C]
RELATION QUALIFIER: =
Solubility (mg/mL) 0.1M HCl: 1.875

* * *

- ASSAY NOTES: Solid phase stability experiment (sealed at 60° C., HPLC purity)
- Assay type: physicochemical
- DETAILS: 60° C.-0 day
- Description: 5 mg of samples were weighed and sealed at 60° C., respectively. Another set of samples were sealed and stored at −20° C. as a control at the same time. All samples were characterized by HPLC at 7 days and 21 days to detect changes in purity.
Listing: Total impurities (%) of selected molecules

MOLECULE: CS(=O)(=O)C1(c2cc(-c3cnc(N)cc3Cl)nc(N3CCOCC3)n2)CC1 [crystal form B-1]
UNIT NAME: %
Total impurities (%): 0.26
--
MOLECULE: CS(=O)(=O)C1(c2cc(-c3cnc(N)cc3Cl)nc(N3CCOCC3)n2)CC1 [crystal form A]
UNIT NAME: %
Total impurities (%): 0.27
--
MOLECULE: CS(=O)(=O)C1(c2cc(-c3cnc(N)cc3Cl)nc(N3CCOCC3)n2)CC1 [crystal form D-2]
UNIT NAME: %
Total impurities (%): 1.63
--
MOLECULE: CS(=O)(=O)C1(c2cc(-c3cnc(N)cc3Cl)nc(N3CCOCC3)n2)CC1 [crystal form C]
UNIT NAME: %
Total impurities (%): 0.27

* * *

- ASSAY NOTES: Solubility of crystal form I in common solvents
- Format: physicochemical
- DETAILS: organic solvent or mixture, thermodynamic from solid; methanol, ambient temperature

MOLECULE: CS(=O)(=O)C1(c2cc(-c3cnc(N)cc3Cl)nc(N3CCOCC3)n2)CC1 [crystal form I]
solubility: > 9460 µg/mL

* * *

- ASSAY NOTES: Solubility experiment in 0.1M HCl, buffers and water
- Format: physicochemical
- DETAILS: water, ambient temperature
- Experimental: The solubilities of the following four kinds of salt and free base sample in 0.1M HCl, pH 4.5 buffer, pH 6.8 buffer, and water were tested at ambient temperature. In the test, the calibration curves of free base and four kinds of salt were plotted. 3 mg of solid samples of free base and four kinds of salt were weighed, respectively, and then 1 ml of the solvent was added, centrifuged after 30 min ultrasound. […]
# Solubility (mg/mL) H2O listing for each entry below

COMPOUND: CS(=O)(=O)C1(c2cc(-c3cnc(N)cc3Cl)nc(N3CCOCC3)n2)CC1 [crystal form C]
Solubility (mg/mL) H2O: 0.174
//
COMPOUND: CS(=O)(=O)C1(c2cc(-c3cnc(N)cc3Cl)nc(N3CCOCC3)n2)CC1 [crystal form D-2]
Solubility (mg/mL) H2O: 0.023
//
COMPOUND: CS(=O)(=O)C1(c2cc(-c3cnc(N)cc3Cl)nc(N3CCOCC3)n2)CC1 [crystal form A]
Solubility (mg/mL) H2O: 1.063
//
COMPOUND: CS(=O)(=O)C1(c2cc(-c3cnc(N)cc3Cl)nc(N3CCOCC3)n2)CC1 [crystal form B-1]
Solubility (mg/mL) H2O: 0.946

* * *

- ASSAY NOTES: Solubility of crystal form I in common solvents
- Assay type: physicochemical
- DETAILS: organic solvent or mixture, thermodynamic from solid; methyl tert-butyl ether, ambient temperature
- Protocol: The solubility of the crystal form I in 11 common solvents at ambient temperature was tested. […] The peak area was recorded and the standard curve was plotted, and the curve equation: y=11.30762x, R^2=0.99998, which has a good linear correlation in a range of 4.9 μg/ml˜499 μg/ml was obtained. […] The supernatant was drawn and diluted at a certain multiple, injected to the HPLC, the peak area was recorded, the sample concentration was calculated, and the pH of undiluted samples was determined.

COMPOUND: CS(=O)(=O)C1(c2cc(-c3cnc(N)cc3Cl)nc(N3CCOCC3)n2)CC1 [crystal form I]
solubility: > 1040 µg/mL

* * *

- ASSAY NOTES: Solubility of crystal form I in common solvents
- Assay type: physicochemical
- DETAILS: thermodynamic from solid; water, ambient temperature

COMPOUND: CS(=O)(=O)C1(c2cc(-c3cnc(N)cc3Cl)nc(N3CCOCC3)n2)CC1 [crystal form I]
UNIT NAME: µg/mL
solubility: 185

* * *

- ASSAY NOTES: Hygroscopicity experiment (DVS)
- Type: physicochemical
- DETAILS: DVS, 25° C.

MOLECULE: CS(=O)(=O)C1(c2cc(-c3cnc(N)cc3Cl)nc(N3CCOCC3)n2)CC1 [crystal form I]
hygroscopicity (in words): almost no hygroscopicity
--
MOLECULE: CS(=O)(=O)C1(c2cc(-c3cnc(N)cc3Cl)nc(N3CCOCC3)n2)CC1 [crystal form B-1]
hygroscopicity (in words): slightly hygroscopic
--
MOLECULE: CS(=O)(=O)C1(c2cc(-c3cnc(N)cc3Cl)nc(N3CCOCC3)n2)CC1 [crystal form F]
hygroscopicity (in words): almost no hygroscopicity
--
MOLECULE: CS(=O)(=O)C1(c2cc(-c3cnc(N)cc3Cl)nc(N3CCOCC3)n2)CC1 [crystal form E]
hygroscopicity (in words): almost no hygroscopicity
--
MOLECULE: CS(=O)(=O)C1(c2cc(-c3cnc(N)cc3Cl)nc(N3CCOCC3)n2)CC1 [crystal form A]
hygroscopicity (in words): slightly hygroscopic
--
MOLECULE: CS(=O)(=O)C1(c2cc(-c3cnc(N)cc3Cl)nc(N3CCOCC3)n2)CC1 [crystal form C]
hygroscopicity (in words): almost no hygroscopicity
--
MOLECULE: CS(=O)(=O)C1(c2cc(-c3cnc(N)cc3Cl)nc(N3CCOCC3)n2)CC1 [crystal form D-2]
hygroscopicity (in words): almost no hygroscopicity

* * *

The reader will find reported Solubility (mg/mL) pH 4.5 values listed item by item below.
- ASSAY NOTES: Solubility experiment in 0.1M HCl, buffers and water
- Type: physicochemical
- DETAILS: pH 4.5 buffer, ambient temperature
READOUT: Solubility (mg/mL) pH 4.5

COMPOUND: CS(=O)(=O)C1(c2cc(-c3cnc(N)cc3Cl)nc(N3CCOCC3)n2)CC1 [crystal form D-2]
RESULT: 0.031
--
COMPOUND: CS(=O)(=O)C1(c2cc(-c3cnc(N)cc3Cl)nc(N3CCOCC3)n2)CC1 [crystal form A]
RESULT: 0.020
--
COMPOUND: CS(=O)(=O)C1(c2cc(-c3cnc(N)cc3Cl)nc(N3CCOCC3)n2)CC1 [crystal form C]
RESULT: 0.027
--
COMPOUND: CS(=O)(=O)C1(c2cc(-c3cnc(N)cc3Cl)nc(N3CCOCC3)n2)CC1 [crystal form B-1]
RESULT: 0.026
